Molecular target: rhSP-D (human recombinant SP-D) (Homo sapiens, UniProt P35247)
Construct: host or cells: CHO cells
Sequence (P35247 21-375): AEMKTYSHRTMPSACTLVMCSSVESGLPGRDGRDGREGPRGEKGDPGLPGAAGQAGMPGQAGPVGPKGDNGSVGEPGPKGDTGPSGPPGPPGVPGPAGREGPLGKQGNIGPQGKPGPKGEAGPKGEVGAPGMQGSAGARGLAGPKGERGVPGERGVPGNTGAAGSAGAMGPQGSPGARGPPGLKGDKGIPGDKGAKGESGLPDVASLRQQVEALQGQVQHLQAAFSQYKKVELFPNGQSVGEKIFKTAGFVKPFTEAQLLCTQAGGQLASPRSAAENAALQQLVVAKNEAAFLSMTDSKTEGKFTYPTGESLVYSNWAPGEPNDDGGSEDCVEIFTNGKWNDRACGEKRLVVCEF
Test: Microscale thermophoresis (MST) binding to rhSP-D
Conditions: apparent KD at protein 9 nM, 25°C, read-out: KD (MST Measurements) ±Kd confidence
Procedure: Human-isolated and recombinant proteins were labeled using the Monolith Protein Labeling Kit RED-NHS according to the manufacturer’s instructions. […] The concentration of the labeled protein {c(M) = [A205 − (A650 × 0.19)]/[31 × MWprotein]) and the degree of labeling [DOL = A650/(195.000 M^−1cm^−1 × c(M)] were calculated according to the manufacturer’s instruction, measuring absorption at 205 nm (for the protein) and 650 nm (for the dye). […]
Property: Kd
# number then unit; no other words

Annotate the molecule CC(=O)N[C@@H]1C(O)O[C@H](CO)[C@@H](O)[C@@H]1O (stereo partly drawn) [ManNAc, N-acetyl-D-mannosamine monohydrate] with its measured Kd. 5390 µM

Note down Kd recorded for C[C@H](O)[C@@H](O)[C@@H](O)[C@H](O)C=O 370 µM

Name the recorded Kd of the molecule listed here: O=C[C@H](O)[C@@H](O)[C@H](O)[C@H](O)C(=O)O 5 µM

Annotate the molecule O=C[C@H](O)[C@@H](O)[C@@H](O)[C@H](O)CO [Gal, D(+)-galactose] with its measured Kd. 820 µM

Determine its reported Kd: CC(=O)N[C@H]1C(O)O[C@H](CO)[C@H](O)[C@@H]1O (stereo partly shown) 390 µM

Determine from records and report Kd for OC[C@@H]1OC(O)[C@@H](O)[C@H](O)[C@H]1O (stereo partly drawn) [Glc, L(−)-glucose] 120 µM

Let me know recorded Kd for OC[C@H]1O[C@H](O[C@H]2[C@H](O)[C@@H](O)[C@H](O)O[C@@H]2CO)[C@H](O)[C@@H](O)[C@@H]1O [Maltose, D(+)-maltose] , thanks. 450 µM

Supply measured Kd of OC[C@H]1OC(O)[C@@H](O)[C@@H](O)[C@@H]1O (stereo partly drawn) [Man, D(+)-mannose] in your reply. 20 µM

Tell me its Kd given CC(=O)N[C@H]1[C@H]([C@H](O)[C@H](O)CO)OC(O)(C(=O)O)C[C@@H]1O (stereo partly shown) as the entry. 270 µM

Return Kd (reported value) for this molecule: CC(=O)N[C@@H]1[C@@H](O)[C@H](O)[C@@H](CO)O[C@@H]1O 130 µM
